Attribution: patent US20130115279A1

# Target of assay: T1, HLA-A*0301 (human)
# T1 construct: Class I MHC molecule of the ProImmune REVEAL assay; also called HLA-A3
# Method summary: REVEAL MHC binding assay, incorporation into MHC relative to positive control peptide
Measure name: % Positive Control (%)

Consider the reported % Positive Control for these binders:
NLFWFGIGK (synthetic nine-residue peptide of human CD133 (ProImmune)) [CD133 peptide NLFWFGIGK (SEQ ID NO:9)]    53.1
RTRIKRSRK (synthetic nine-residue peptide of human CD133 (ProImmune)) [CD133 peptide RTRIKRSRK (SEQ ID NO:7)]    87.3
LSSSLTSVK (synthetic nine-residue peptide of human CD133 (ProImmune)) [CD133 peptide LSSSLTSVK (SEQ ID NO:8)]    52.5
YLSGKLFNK (synthetic nine-residue peptide of human CD133 (ProImmune)) [CD133 peptide YLSGKLFNK (SEQ ID NO:6)]    46.9

(1) ILAQYNTTK (synthetic nine-residue peptide of human CD133 (ProImmune)) [CD133 peptide ILAQYNTTK (SEQ ID NO:5)]
(2) KLFNKSKMK (synthetic nine-residue peptide of human CD133 (ProImmune)) [CD133 peptide KLFNKSKMK (SEQ ID NO:4)]
Prompt: Hi, I'm comparing 1 with 2 and wondering which one has the bigger number for % Positive Control. Any idea? Respond with the label that goes with your answer.
Completion: 2
(2: 80.8%, 1: 46.6%)
